Data provenance is PubChem BioAssay (NCI).

System: M14 melanoma
procedureDetails: NCI tumour cell line growth inhibition, 48 h; in the data active means GI50 below about 0.43 µM; inactive means the rest
One label from this list, please: True for active, False for inactive

Reference set, count: 6
[
  {
    "compound": "C[C@@]12CC[C@@H](O)C[C@@H]1CC[C@H]1[C@H]2CC[C@@]2(C)[C@H](c3ccc(=O)oc3)CC[C@@]12O",
    "answerLabel": "True"
  },
  {
    "compound": "CC(C)[C@@]12C[C@@H](OC(=O)COC(=O)c3ccccc3)[C@@](C)(O1)[C@@H]1CC[C@@H](C)[C@H]1[C@@H]2OC(=O)/C=C/c1ccccc1",
    "answerLabel": "False"
  },
  {
    "compound": "CCCCCCCCCCCCCCCC(=O)NS(=O)(=O)OC[C@H]1O[C@@H](n2cnc3c(N)ncnc32)[C@H](O)[C@@H]1O",
    "answerLabel": "False"
  },
  {
    "compound": "CC(C)C[C@H](NC(=O)[C@@H](Cc1ccccc1)n1ccc(Nc2ccccc2)cc1=O)B(O)O",
    "answerLabel": "True"
  },
  {
    "compound": "CCOc1cc(Cl)c(C(C)NC(=O)c2cccc(OC)c2)cc1OCC (centres undefined)",
    "answerLabel": "False"
  },
  {
    "compound": "CC(=O)OC(C(=O)[O][Ge]([CH3])([CH3])[CH3])c1ccccc1 (centres undefined)",
    "answerLabel": "False"
  }
]

Task: Give the logged outcome of this assay for the following compound: CC1(C)N=C(N)N=C(N)N1c1ccc(OCC(=O)Nc2ccc(S(=O)(=O)F)cc2Cl)c(Cl)c1
Result: False

Task: Short answer needed: outcome of this test for Cc1cc(S(=O)(=O)Nc2nc3ccccc3c(=O)n2Cc2ccco2)c(S)cc1Cl ?
Result: False

Task: Tell me the recorded outcome of this test for Cc1cc(O)ccc1C1(c2ccc(O)cc2C)OC(=O)c2ccccc21 .
Result: False
